Measurement notes: yeast display, Sf9 membrane polyspecificity reagent, FACS + sequencing; frameworks hold sequencing errors
Measured quantity: polyreactivity (PSR sort gate)

Sample records with polyreactivity (PSR sort gate):
>  <Sequence content>
QVQLVESGGCIDQAGGSLRLSCAASGSNFRGYAKGWYRQAPGKERELVAAITWSGGSTYYADSVKGRFTISRDKAKNTVSLQMNSLKPEDTAVYYCAAEYWDSDTYDYCGQGTQVTVSS

>  <polyreactivity (PSR sort gate)>
low polyreactivity

$$$$
>  <Sequence content>
QVQLVESGGGLVQAGGSLRLSCAASAFIFGHYAMGWYRQAPGKERELVAGINSSGGSTHYADSVKGRFTISRDNAKKTVYLQMNSLKPEDTAVYYCAVAARTRARVLYGYDYWGQGTQVTVSS

>  <polyreactivity (PSR sort gate)>
low polyreactivity

$$$$
>  <Sequence content>
QVQLVESGGGLVQAGGSLRLSCAASGFIFWTYAMGWYRQAPGKERELVARISWSGGSTYYADSVKGRFTISRDNAKNTVYLQMNSLKPEDTAVYYCARLATLYESIEYDYWGQGTQVTVSS

>  <polyreactivity (PSR sort gate)>
low polyreactivity

$$$$
>  <Sequence content>
QVQLEESGGGLVQAGGSLRLSCAASGIIFSGYAMGWYRQAPGKERELVASIRSGSNTYYADSVKGRFTISRDNAKNTVYLQMISLKPEDTAVYYCAARVVPATFRFIRYPHPYYYWGQGTQVTVSS

>  <polyreactivity (PSR sort gate)>
low polyreactivity

$$$$
>  <Sequence content>
QVQRVASGGGLVQAGGSLRLSWAASGSIVVRYTMGWYRQAPGKERELVAGISSRGGSTYYADSVKGRFTISRDNAKNTVSLQLNSLTPEDTAVYYCAKERSYSRSGGTYYYWGQRTQVTVSS

>  <polyreactivity (PSR sort gate)>
high polyreactivity

$$$$

Give the measured polyreactivity (PSR sort gate) of QVQLVESGGGLVQAGGSLRLSCAPSGLTFSNYAMGWYRQAPCKERELVAGISSSGGTTYYADSVKGRFTISRDNAKNTVFLQMNSLKPEDTAVYYCATRRHYGSFWYDYWGQGTQVTVSS .
high polyreactivity

Now give it for QVHLVESGGGLVHAGGSLRLSCAASGFTLAWNAMGWYRQAPGKETELVATISRYGSSTSYADSVKGRFTISRDNSKNTVYLQMNSLKPEDTAVYYCAADRYTFRMDYWGQGTQVTVSS too.
high polyreactivity

Now give it for QVQLVESGGGLVQAGGSLRLSCAASGRTFSYYAMGWYIQAPGKERELVAAITWSGASTYYADSVKGRFTISRDNAKNTVYLQMNSLKPEDTAVYYCNAGWDSGIVQSDETVYKYDYWGQGTQVTVSS too.
low polyreactivity

Now give it for QVQLVESGGGLVQAGGSLRLSCAASGIIFFRNAMGWYRQAPGKERELVAAIRWSGGSSYYADSVKGRYTISRDNAKNTVYLQINSLKPEDTAVYYCNAVTVYKHGSWGQGTQVTVSS too.
high polyreactivity

Now give it for QVQLVESGGGLVQAGRSLRLSCAASGITFESYAMGWYRQAPGKEREFVAAISRSSGSTYYADSVKGRFTISRDNAKNTVYLQMNSLKPEDTAVYYCATRSFRDDGFGRYYYWGQGTLVTVSS too.
high polyreactivity

Now give it for QVQLVESGGGLVQAGGSLRLSCAASGSTFSNAMGWYREAPGKERELVAAITNRGGSTYYADSVKGRFTISRDNAKNTVYLQMNSLKPEDTAVYYCAAAGIPESWYQERDYWGQGTQVTVSS too.
low polyreactivity

---

Measurement notes: yeast display, Sf9 membrane polyspecificity reagent, FACS + sequencing; frameworks hold sequencing errors

>  <Sequence content>
QVQLVVSGGGLVQPGGSLRLSCAATGSTLNSYVMGWYRQAPGKERELVATIRSGSSTNYADSVKGRFTISRDNAKNTVYLLMNSLKPEDTAVYYFAADAYSLCYDSWGQGTLVTVSS

>  <polyreactivity (PSR sort gate)>
low polyreactivity

$$$$
>  <Sequence content>
QVQLVESGGGLVQAGGSLRLSCAASGIIFEYYAMGWYRQAPGKERELVAAITRGGSTYYADSVKGRFTISRDNAKNTVYLQMNSLKAEDTAVYYCAADRYYYEYDYWGQGTQVTVSS

>  <polyreactivity (PSR sort gate)>
low polyreactivity

$$$$

---

Measurement notes: yeast display, Sf9 membrane polyspecificity reagent, FACS + sequencing; frameworks hold sequencing errors

>  <Sequence content>
QVQLVESAGGLVQAGGSLRLSCAASGSILTSYAMGWYRQAPGKERELVAAINGSGGSTFYADSVKGRFTISRDNAKNTVYLQMNSLKPEDTAVYYCNTGGPRGTTYDYWGQGTQVTVSS

>  <polyreactivity (PSR sort gate)>
low polyreactivity

$$$$
>  <Sequence content>
QVQLVDSGGGLVQAGGSLRLSCAASGSTFDAYAMGWYRQAPGKERELVAGISSGGSYEYAESVKGRFTISRDNAKNTVYVQMNSLKPEDTAVYYCAADSRQSDYYYQPTKFDYWGQGTQVTVSS

>  <polyreactivity (PSR sort gate)>
low polyreactivity

$$$$
>  <Sequence content>
QVQLVESGGGLVQAGGSLRLICAASGFIFRVYAMGWYRQAPGKERALVATITYDGGRTYYADSVKGRFTISRDNAKNTVYLQMNSLKPEDTAVFGYWGQGTQVTVSS

>  <polyreactivity (PSR sort gate)>
low polyreactivity

$$$$

---

Measurement notes: yeast display, Sf9 membrane polyspecificity reagent, FACS + sequencing; frameworks hold sequencing errors
Measured quantity: polyreactivity (PSR sort gate)

Sample records with polyreactivity (PSR sort gate):
>  <Sequence content>
QVQLVESGGGLVQAGGSLRLSCAASGRTFDVYAMGWYRQAPGKERELVATISRSGGSTYYADSVKGRFTISRDNAKNTVYLQMNSLKPEDTAVYYCAARKRSPPYGYWGQGTQVTVSS

>  <Measured quantity>
polyreactivity (PSR sort gate)

>  <Result>
high polyreactivity

$$$$
>  <Sequence content>
QVQLVESGGGLVQAGGSLRLSCAASGFTFGKYAMGWYRPAPAKERELVAAISRSGGSTYYADSVKGRFTISRDIAKNTVYLQMNSLKPEDTAVYYCAAYHPIQEYDYWGQGTQVTVSS

>  <Measured quantity>
polyreactivity (PSR sort gate)

>  <Result>
high polyreactivity

$$$$
>  <Sequence content>
QVQLVESGGGLVQAGGSLRLSCAASGSIFPYYAMGWYRQAPGKERELVAAISWSGTSTYYADSLKGRFTISRDNAKNTVYLQMNSLKPEDTAVYYCAASAVGTNHYGYWNESDYWGQGTQVTVSS

>  <Measured quantity>
polyreactivity (PSR sort gate)

>  <Result>
low polyreactivity

$$$$
>  <Sequence content>
QVQLVESGGGLVQAGGSLRLSCAASGRIFHPNAMGWYRQAPGKERELVAAITNSGGITYADSVKGRFTISRDNAKNTVYLQMNSLKPEDTAVYYCNTATNRFHYKYRKPYDYWGQGTQVTVSS

>  <Measured quantity>
polyreactivity (PSR sort gate)

>  <Result>
low polyreactivity

$$$$
>  <Sequence content>
QVQLVESGGGLVQAGGSLRLTCAASGFIFYNNAMGWYRQAPGKERELVASIRWSGASTYYADSVKGRFTISRDNAKNTVYLQMNSLKPEDTAVYYCAARQSRLNSYFSHRFWRYDYWGQGTQVTVSS

>  <Measured quantity>
polyreactivity (PSR sort gate)

>  <Result>
high polyreactivity

$$$$

Give the measured polyreactivity (PSR sort gate) of QVQLVESGGGLVQAGGSLRLSCAASGFIFSYYAMGWYRQAPGKERELVATINFSGGRTYYADSVKGRFTISRDNEKNTVYLQMNSLKPEDTAVYYCAASFYSYTSRYPDYYYWGQGTQVTVSS .
high polyreactivity

---

Measurement notes: yeast display, Sf9 membrane polyspecificity reagent, FACS + sequencing; frameworks hold sequencing errors
Measured quantity: polyreactivity (PSR sort gate)

Sample records with polyreactivity (PSR sort gate):
>  <Sequence content>
QVQLVESGGGLGQAGGSLRLICAASGRTFLYNAMGWYRQAPGNERELVASITSGGSTNYADSVKGRFTISRDNAKNTVNLQMNSVKPEDTAVYYCAADERRPYWQHSIGSGRPFDYWGQGTQVTVSS

>  <polyreactivity (PSR sort gate)>
low polyreactivity

$$$$
>  <Sequence content>
QVQLVESGGGLVQAGGSLRLSCAASGSPFRPYVMGWSRQAPGKERELVAAISWRGGTTYYADSVKGRFTISRDNAKNTDYLQIHSLKPEDTAVYYCAARGDQGVPVARRYDYWGQGTQVTVSS

>  <polyreactivity (PSR sort gate)>
high polyreactivity

$$$$
>  <Sequence content>
QVQLVESGGGLVQAGGSLRLSCAASGRIVGRHALGWYRQAPGKERELVAAMSSSGGTYYADSVKGRFTISRDKAKNTLYLQMNSLKPEDTAVYYCNARVRTQQRWVDYWGQGTQVTVSS

>  <polyreactivity (PSR sort gate)>
high polyreactivity

$$$$
>  <Sequence content>
QVQLVESGGGLVQAGGSLRLSCAASGRIFHYNAMGWYRQAPGKERELVAAISTGGSTNYADSVKGRFTISRDNAKNTVYLQMNSLKPEDTAVYYCAADHPVTYPTTKFDYWGQGTQVTVSS

>  <polyreactivity (PSR sort gate)>
low polyreactivity

$$$$
>  <Sequence content>
QVQLVESGGGLVQAGGSLRLSCAASGITFRRYTMGWYRQAPGKERELVAAITSRGSSTYYADSVKGRFTISRDNAKNTVYLQMNSLKPEDTAVYYCAAQYRQRRHDYWGQGTQVTVSS

>  <polyreactivity (PSR sort gate)>
high polyreactivity

$$$$
>  <Sequence content>
QVQLVESGGGLVQAGGSLRLSCAASGSTFSYYAMGWYRQAPGKESELVAAISRTAVSTYYADSVKGRFTISRDNAKNTVYLQMYSLKPEDTAVYYCAASHYHGYSLGYDYWGQGTQVTVSS

>  <polyreactivity (PSR sort gate)>
high polyreactivity

$$$$

Give the measured polyreactivity (PSR sort gate) of QVQLVESGGGLVLAGGSLRLSCAASGFTFEKSVMGWYRQAPGNEREFVAAITRSGGRTYYADSVKGRFTISRDNAKNTVYLQMNSLKPEDTAVYFCAAAFSRSDTGGGSWGQGTQVTVSS .
high polyreactivity

Now give it for QDQLVESGGGLVQAGGSLPLSCAASANIFPLYAMGWYRQAPGKERELVAAITWSTTSTYYADSVKGRFTISRDNAKNTVYLQMNSLKPEDTAVYYCKAKTDESYYYSDYDYWVQGTQVTVSS too.
low polyreactivity

Now give it for QVQLVESGGGLVQAGGSLRLSCAASGSIFRWNAMGWYRQAPGKEREFVAAISGRGGSTYYADSVKGRFTISRDNAKNTVYLQMNSLKPEDTAVYYCAADQAHLATRGFDYWGQGTQVTVSS too.
high polyreactivity

Now give it for QVQLVESGGGLVQAGGSLRLSCAASGLIFSDYAMGWYRQEPGKERELVAAIRSGGRTYYADSVKGRFTISRDNAKNTVYLQMNSLKPEDTAVYYCNKLYRRYPVPREYDYWGQGTQVTVSS too.
high polyreactivity

Now give it for QVQLVESGGGLVQAGGSLRLSCAASGRTFRANAMGWSRQAAGKERELVAAITWDGGSTYYADSVKGRFTISRDNAKNTVYLQMNSLKPEDTAVYYCAAESWFLRWYRYDYWGQGTQVTVSS too.
low polyreactivity

Numbers sourced from the nanobody polyreactivity screen of Harvey et al. (2022).
